Target: human ALDH1A1 (Homo sapiens, UniProt P00352)
Sequence (P00352 1-501): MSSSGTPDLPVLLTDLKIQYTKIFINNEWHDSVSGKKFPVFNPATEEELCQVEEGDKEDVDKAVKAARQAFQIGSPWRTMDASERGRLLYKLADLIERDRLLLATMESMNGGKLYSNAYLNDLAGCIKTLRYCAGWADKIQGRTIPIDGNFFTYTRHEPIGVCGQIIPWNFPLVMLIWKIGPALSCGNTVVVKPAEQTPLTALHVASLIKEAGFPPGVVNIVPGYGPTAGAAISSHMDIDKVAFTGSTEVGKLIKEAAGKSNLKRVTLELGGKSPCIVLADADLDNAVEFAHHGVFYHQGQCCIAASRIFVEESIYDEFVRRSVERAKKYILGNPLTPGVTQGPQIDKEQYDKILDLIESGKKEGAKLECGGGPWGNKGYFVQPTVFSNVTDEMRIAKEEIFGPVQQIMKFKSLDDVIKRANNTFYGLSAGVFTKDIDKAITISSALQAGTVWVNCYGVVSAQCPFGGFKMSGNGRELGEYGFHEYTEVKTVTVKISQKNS
Measure name: IC50

Dear colleague, I am looking for the recorded IC50 of the following compound: CCCN(CCC)c1ccc(C=O)cc1
140 nM

---

Protein target, amino acids: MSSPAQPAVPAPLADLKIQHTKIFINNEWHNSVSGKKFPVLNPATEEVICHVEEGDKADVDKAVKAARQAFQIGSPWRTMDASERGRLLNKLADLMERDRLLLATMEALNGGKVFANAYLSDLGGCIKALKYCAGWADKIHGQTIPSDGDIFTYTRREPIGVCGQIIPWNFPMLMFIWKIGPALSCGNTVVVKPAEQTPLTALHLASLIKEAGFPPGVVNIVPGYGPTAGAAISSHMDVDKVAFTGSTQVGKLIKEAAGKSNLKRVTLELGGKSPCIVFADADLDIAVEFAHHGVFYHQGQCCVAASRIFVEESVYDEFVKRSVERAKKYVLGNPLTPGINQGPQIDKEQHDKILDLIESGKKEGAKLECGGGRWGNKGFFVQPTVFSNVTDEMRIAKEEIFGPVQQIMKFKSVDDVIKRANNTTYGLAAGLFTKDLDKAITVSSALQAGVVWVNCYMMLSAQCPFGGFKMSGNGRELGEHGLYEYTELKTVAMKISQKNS
Measure name: IC50 (µM)
Return type: number; implicit unit µM.

Quick one: IC50 of CCCN(CCC)c1ccc(C=O)cc1 ?
0.04
